The reported measurements were obtained from patent US20260327234A1.

Biological target: testosterone (T) production in NCI-H295R cells (Homo sapiens, UniProt P05108)
Construct: testosterone measured by LC-MS/MS as downstream steroid
Assay: H295R Steroid Biosynthesis Inhibition Assay - inhibition of testosterone (T) production in NCI-H295R cells
Conditions: 48 h, LC-MS/MS, read-out: Inh. of T IC50
quantity: IC50

Some molecules with known IC50 results, for comparison:
> print(dat)
                                   molecule   measurement
1  CS(=O)(=O)N1CCC(c2cnc3cc(CN4Cc5ccccc5C4)ccc3n2)CC1 [Compound 55]       ≤ 40 nM
2  O=c1cc(CN2Cc3ccccc3C2)oc2cc([C@@H]3CCC[C@@H](O)C3)oc12 [Compound 36]      ≥ 101 nM
3  CS(=O)(=O)N1CCC(c2ccc3oc(CN4Cc5ccccc5C4)cc(=O)c3c2)CC1 [Compound 57]       ≤ 40 nM
4  CS(=O)(=O)N1C[C@@H]2[C@H](C1)[C@H]2c1cc2oc(CN3Cc4ccccc4C3)cc(=O)c2o1 [Compound 13]       ≤ 40 nM
5  CC(C)(C)OC(=O)N1CCC(c2cnc3cc(CN4Cc5ccccc5C4)ccc3n2)CC1 [Compound 113]  41 to 100 nM
6  O=C(c1ncc[nH]1)N1CCC(c2cnc3cc(CN4Cc5ccccc5C4)ccc3n2)CC1 [Compound 107]      ≥ 101 nM

Note to self: IC50 of CS(=O)(=O)N1CCC(COc2ccc(C3(N4Cc5ccccc5C4)CC3)c3cccnc23)CC1 [Compound 10] with testosterone (T) production in NCI-H295R cells (Homo sapiens, UniProt P05108) was ≥ 101 nM

Considering CS(=O)(=O)N1CCC(c2ccc3cc(CN4Cc5ccccc5C4)cnc3c2)CC1 [Compound 67] , its IC50 with testosterone (T) production in NCI-H295R cells (Homo sapiens, UniProt P05108) was recorded as ≤ 40 nM

// returns IC50 for CS(=O)(=O)N1CCC(c2ccc3oc(CN4Cc5ccccc5C4)cc(=O)c3n2)CC1 [Compound 58] with testosterone (T) production in NCI-H295R cells (Homo sapiens, UniProt P05108); value = ≤ 40 nM

Considering O=C(NCC(F)(F)F)N1CCC(c2cnc3cc(CN4Cc5ccccc5C4)ccc3n2)CC1 [Compound 120] , its IC50 with testosterone (T) production in NCI-H295R cells (Homo sapiens, UniProt P05108) was recorded as 41 to 100 nM

Record for CCNC(=O)N1CCC(c2cnc3cc(CN4Cc5ccccc5C4)ccc3n2)CC1 [Compound 116] under target or system testosterone (T) production in NCI-H295R cells (Homo sapiens, UniProt P05108): IC50 reported as ≥ 101 nM
